assay: Pharmacokinetics in rat plasma after oral administration of CGF, SGF, GCGF and GIGF extracts (LC-MS/MS); settings: male, Sprague-Dawley, rat, plasma, po, 0.75 mL/kg, T 1/2, rat plasma, single oral dose of SGF extract 0.75 mL/kg, n = 6, mean ± SD
Readout label: half-life (h)

a = COC(=O)C1=CO[C@@H](O)[C@@H]2C(CO)=CC[C@H]12
b = O=C(O)C1=CO[C@@H](O[C@@H]2O[C@H](CO)[C@@H](O)[C@H](O)[C@H]2O)[C@@H]2C(CO)=CC[C@H]12
c = CC(/C=C/C=C(\C)C(=O)O)=C\C=C\C=C(C)\C=C\C=C(/C)C(=O)O
Input line: Hey, quick one: sort these by half-life, largest value first please. As an answer, provide the labels arranged in the order called for.
Output line: c, b, a

====

assay: Stability of the analytes in rat plasma QC samples under storage conditions; assay type: in vitro ADME; details: 30 ng/mL, three freeze-thaw cycles
Readout label: Freeze-thaw cycles Remain (%)

COC(=O)C1=CO[C@@H](O[C@@H]2O[C@H](CO)[C@@H](O)[C@H](O)[C@H]2O)[C@@H]2C(CO)=CC[C@H]12 [Geniposide] | 92.8
O=C(O)C1=CO[C@@H](O[C@@H]2O[C@H](CO)[C@@H](O)[C@H](O)[C@H]2O)[C@@H]2C(CO)=CC[C@H]12 [Geniposidic acid] | 101
CC(/C=C/C=C(\C)C(=O)O)=C\C=C\C=C(C)\C=C\C=C(/C)C(=O)O [Crocetin] | 95.3
COC(=O)C1=CO[C@@H](O[C@@H]2O[C@H](CO[C@@H]3O[C@H](CO)[C@@H](O)[C@H](O)[C@H]3O)[C@@H](O)[C@H](O)[C@H]2O)[C@@H]2C(CO)=CC[C@H]12 [Genipin-1-β-gentiobioside] | 105
COC(=O)C1=CO[C@@H](O)[C@@H]2C(CO)=CC[C@H]12 [Genipin] | 95.3

====

experiment: Stability of the analytes in rat plasma QC samples under storage conditions; format: in vitro ADME; conditions: 30 ng/mL
Readout label: Autosampler for 24 h Remain (%)

CC(/C=C/C=C(\C)C(=O)O)=C\C=C\C=C(C)\C=C\C=C(/C)C(=O)O [Crocetin] | 99.9
COC(=O)C1=CO[C@@H](O[C@@H]2O[C@H](CO[C@@H]3O[C@H](CO)[C@@H](O)[C@H](O)[C@H]3O)[C@@H](O)[C@H](O)[C@H]2O)[C@@H]2C(CO)=CC[C@H]12 [Genipin-1-β-gentiobioside] | 100
COC(=O)C1=CO[C@@H](O)[C@@H]2C(CO)=CC[C@H]12 [Genipin] | 104
COC(=O)C1=CO[C@@H](O[C@@H]2O[C@H](CO)[C@@H](O)[C@H](O)[C@H]2O)[C@@H]2C(CO)=CC[C@H]12 [Geniposide] | 95.1
O=C(O)C1=CO[C@@H](O[C@@H]2O[C@H](CO)[C@@H](O)[C@H](O)[C@H]2O)[C@@H]2C(CO)=CC[C@H]12 [Geniposidic acid] | 96.4

====

test: Stability of the analytes in rat plasma QC samples under storage conditions; type: in vitro ADME; details: 10 ng/mL
Readout label: At −80°C for a month Remain (%)

CC(/C=C/C=C(\C)C(=O)O)=C\C=C\C=C(C)\C=C\C=C(/C)C(=O)O [Crocetin] | 98.4
COC(=O)C1=CO[C@@H](O[C@@H]2O[C@H](CO[C@@H]3O[C@H](CO)[C@@H](O)[C@H](O)[C@H]3O)[C@@H](O)[C@H](O)[C@H]2O)[C@@H]2C(CO)=CC[C@H]12 [Genipin-1-β-gentiobioside] | 95.8
COC(=O)C1=CO[C@@H](O)[C@@H]2C(CO)=CC[C@H]12 [Genipin] | 108
